B1: glmS ribozyme (parent)
chain: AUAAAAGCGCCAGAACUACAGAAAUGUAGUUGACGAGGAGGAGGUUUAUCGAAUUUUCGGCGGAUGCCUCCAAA

# Variants of: B1
# EXPERIMENTAL_PROTOCOL: self-cleavage kobs at 10000 uM GlcN6P; higher = faster cleavage; RNA array
# DETAILS: with glucosamine-6-phosphate
Fewer inactive variants are shown than the library holds.
MEASUREMENT_KIND: self-cleavage kobs at 10000 uM GlcN6P

>>> val("G9U A42U U55G")
"< 1e-05 s⁻¹"
>>> val("U31G A36G U69A")
"< 1e-05 s⁻¹"
>>> val("C8A A15U")
"< 1e-05 s⁻¹"
>>> val("C8G A15G G37C U49G")
"< 1e-05 s⁻¹"
>>> val("C8U G43A U56C")
"< 1e-05 s⁻¹"
>>> val("G9U G41U")
"< 1e-05 s⁻¹"
>>> val("A33U C34U")
"< 1e-05 s⁻¹"
>>> val("A36G G41C G43C A48G")
"< 1e-05 s⁻¹"
>>> val("C34A G41A C68G")
"< 1e-05 s⁻¹"
>>> val("G32A G44C C71G")
"< 1e-05 s⁻¹"
>>> val("G9U A33U G40A C58U")
"< 1e-05 s⁻¹"
>>> val("G7U G37A A48C")
"< 1e-05 s⁻¹"
>>> val("G21U C67G")
"0.00119 s⁻¹"
>>> val("A12U U55A")
"0.0587 s⁻¹"
>>> val("A64U U69C")
"4.48e-05 s⁻¹"
>>> val("C11G G63U")
"< 1e-05 s⁻¹"
>>> val("A14G U30C")
"0.00122 s⁻¹"
>>> val("U31C G32A G60U")
"< 1e-05 s⁻¹"
>>> val("A42U C61A")
"< 1e-05 s⁻¹"
>>> val("G38U C50G U55G U57G")
"7.32e-05 s⁻¹"
>>> val("C8G G9A G35A A36U")
"< 1e-05 s⁻¹"
>>> val("U30A G60U")
"< 1e-05 s⁻¹"
>>> val("G51U U55G")
"< 1e-05 s⁻¹"
>>> val("G40C C68U")
"1.72e-05 s⁻¹"
>>> val("G37A G43U G62U G66C C67A")
"< 1e-05 s⁻¹"
>>> val("C10U C61U G63A")
"< 1e-05 s⁻¹"
